Test system: AML-3 leukemic cell line
Procedure Summary: MTT assay
Format: cell-based, human
Assay Context: read-out: MTT50; AML-3; 48 h
Readout Name: IC50 (µM)

   structure_as_smiles  readout_name  reported_result
0               CSCSSC          IC50             73.4

---

Tested on: Aspergillus niger
Procedure Summary: Antifungal paper disk test, diameter of clear zone
Format: cell-based
Assay Context: Aspergillus niger, 25 μg/disk; acetone
Readout Name: zone of inhibition at 25 µg/disc (mm)

>>> df
                                   molecule  reported_result
0  CS(=O)(=O)c1ccccc1SSc1ccccc1S(C)(=O)=O [[o-CH3SO2(C6H4)S]2, o-methylsulfonylphenyl disulphide]              3.3
1  CS(=O)(=O)c1ccc(SSc2ccc(S(C)(=O)=O)cc2)cc1 [[p-CH3SO2(C6H4)S]2, p-methylsulfonylphenyl disulphide]                4
2  CCC(=O)OCSSC [CH3CH2C(O)OCH2SSCH3, 2,3-dithiabutyl propionate]             14.8
3  CSSCOC(=O)c1ccccc1 [CH3SSCH2OC(O)Ph, 2,3-dithiabutyl benzoate]              6.1
4                     CS(=O)(=O)CSSc1ccccc1              0.8
